The values you see were collected from patent US11478444B2.

System: OCI-M2 AZA-S cells
Assay: cells
Format: cell-based
Conditions: Homo sapiens; OCI-M2 (AZA-S); decitabine
Measurement Type: IC50 (nM)
One number for each entry, in nM.

Give a short answer stating reported IC50 for Nc1ncn([C@H]2C[C@H](O)[C@@H](CO)O2)c(=O)n1 .
29.5

====

System: MOLM13 AZA-R cell-line
Assay: Cell viability of MOLM13-R [Resistant] cells
Assay type: cell-based
Details: Homo sapiens, MOLM-13
Measurement Type: IC50 (nM)
Answers are plain numbers, in nM.

Give a short answer stating reported IC50 for Nc1ncn([C@H]2C[C@H](O)[C@@H](CO)O2)c(=O)n1 .
82.1
